testSummary: Drug metabolism in human liver microsomes; further: time not given here
Type: ADME, Microsome
measurementConditions: read-out: Drug metabolism
Readings of metabolised for the listed molecules
Dear colleague, please return just the value in %, with no unit written.

>>> endpointresult("Cc1cc(NC(=O)c2ccc(Cl)cc2)ccc1N1CCC(N2CCCC2C)C1 (stereo not drawn)")
29
>>> endpointresult("Cc1cc(N2CCC(N3CCCC3C)C2)ccc1NC(=O)c1cc(F)ccc1C (stereo not drawn)")
5
>>> endpointresult("Cc1cc(N2CCC(N3CCCC3C)C2)ccc1NC(=O)c1ccccc1F (stereo not drawn)")
15
>>> endpointresult("Cc1cc(C(=O)Nc2ccc(N3CCC(N4CCCC4C)C3)cc2)n[nH]1 (stereo not drawn)")
2
>>> endpointresult("Cc1cc(N2CCC(N3CCCC3C)C2)ccc1NC(=O)c1cccnc1 (stereo not drawn)")
9

Note to self: metabolised recorded for Cc1noc(C)c1C(=O)Nc1ccc(N2CCC(N3CCCC3C)C2)cc1 (stereo not drawn) was 13

###

testSummary: Drug metabolism in rat liver microsomes; further: time not given here
Assay type: ADME, Microsome
measurementConditions: read-out: Drug metabolism
metabolised values, listed per item

>>> endpointresult("Cc1cc(N2CCC(N3CCCC3C)C2)ccc1NC(=O)c1ccc(Cl)cc1 (stereo not given)")
"33%"
>>> endpointresult("CC1CCCN1C1CCN(c2ccc(NC(=O)c3ccccc3F)cc2)C1 (stereo not given)")
"48%"
>>> endpointresult("Cc1cc(NC(=O)c2ccc(Cl)cc2)ccc1N1CCC(N2CCCC2C)C1 (stereo not given)")
"90%"

Note to self: metabolised recorded for Cc1cc(N2CCC(N3CCCC3C)C2)ccc1NC(=O)c1cn[nH]c1 (stereo not given) was 28%

// sample Cc1cc(N2CCC(N3CCCC3C)C2)ccc1NC(=O)c1ccccc1F (stereo not given) , its metabolised was 28%

# compound Cc1noc(C)c1C(=O)Nc1ccc(N2CCC(N3CCCC3C)C2)cc1 (stereo not given) ; its metabolised = 24%

###

testedSystem: hERG (KCNH2) (Homo sapiens)
testSummary: Inhibition of human ERG channel at 1 uM
observedProperty: inhibition at 1 µM

Entry CC1CCCN1C1CCN(c2ccc(NC(=O)c3ccc(Cl)cc3)cc2)C1 (stereo unspecified) under hERG (KCNH2) (Homo sapiens) had inhibition at 1 µM of 19.9%

###

testedSystem: hERG (KCNH2) (Homo sapiens, UniProt Q12809)
Sequence (Q12809 whole entry): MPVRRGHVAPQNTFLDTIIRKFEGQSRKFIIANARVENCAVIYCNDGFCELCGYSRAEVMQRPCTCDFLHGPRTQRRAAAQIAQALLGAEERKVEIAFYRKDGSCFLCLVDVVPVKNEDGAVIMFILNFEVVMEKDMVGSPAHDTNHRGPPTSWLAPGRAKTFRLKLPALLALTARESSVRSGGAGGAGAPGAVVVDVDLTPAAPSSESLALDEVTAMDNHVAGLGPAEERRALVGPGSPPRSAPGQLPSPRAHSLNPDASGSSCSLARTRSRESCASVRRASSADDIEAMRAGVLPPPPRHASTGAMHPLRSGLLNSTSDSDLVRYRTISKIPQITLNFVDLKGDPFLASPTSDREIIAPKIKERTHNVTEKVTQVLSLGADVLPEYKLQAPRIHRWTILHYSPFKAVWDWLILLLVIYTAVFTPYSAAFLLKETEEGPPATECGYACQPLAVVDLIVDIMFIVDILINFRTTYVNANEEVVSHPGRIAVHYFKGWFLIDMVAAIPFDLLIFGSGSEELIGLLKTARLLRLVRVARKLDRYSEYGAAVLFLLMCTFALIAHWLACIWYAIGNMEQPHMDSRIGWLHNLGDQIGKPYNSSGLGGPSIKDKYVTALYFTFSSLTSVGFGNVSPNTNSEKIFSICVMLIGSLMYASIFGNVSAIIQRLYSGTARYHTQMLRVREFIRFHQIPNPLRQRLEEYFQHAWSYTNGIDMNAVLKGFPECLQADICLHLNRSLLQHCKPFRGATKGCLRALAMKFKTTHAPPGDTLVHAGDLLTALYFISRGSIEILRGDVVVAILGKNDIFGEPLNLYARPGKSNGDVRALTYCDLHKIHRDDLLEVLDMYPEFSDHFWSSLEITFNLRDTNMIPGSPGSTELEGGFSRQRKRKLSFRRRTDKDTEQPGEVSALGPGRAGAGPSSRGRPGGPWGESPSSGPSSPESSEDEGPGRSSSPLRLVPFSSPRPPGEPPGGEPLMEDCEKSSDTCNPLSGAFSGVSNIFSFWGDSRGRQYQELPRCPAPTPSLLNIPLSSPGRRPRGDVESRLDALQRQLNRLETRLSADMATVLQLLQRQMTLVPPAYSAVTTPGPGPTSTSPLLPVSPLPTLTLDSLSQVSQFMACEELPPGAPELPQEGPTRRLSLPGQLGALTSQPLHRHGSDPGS
testSummary: Inhibition of human ERG channel at 10 uM
observedProperty: inhibition at 10 µM (%)
# output: bare number, implied unit %

The compound CC1CCCN1C1CCN(c2ccc(NC(=O)c3ccc(Cl)cc3)cc2)C1 (stereo unspecified) , when measured on hERG (KCNH2) (Homo sapiens, UniProt Q12809), yielded inhibition at 10 µM of 95

###

testedSystem: Histamine H3 receptor (Homo sapiens)
Sequence (Q9Y5N1 whole entry): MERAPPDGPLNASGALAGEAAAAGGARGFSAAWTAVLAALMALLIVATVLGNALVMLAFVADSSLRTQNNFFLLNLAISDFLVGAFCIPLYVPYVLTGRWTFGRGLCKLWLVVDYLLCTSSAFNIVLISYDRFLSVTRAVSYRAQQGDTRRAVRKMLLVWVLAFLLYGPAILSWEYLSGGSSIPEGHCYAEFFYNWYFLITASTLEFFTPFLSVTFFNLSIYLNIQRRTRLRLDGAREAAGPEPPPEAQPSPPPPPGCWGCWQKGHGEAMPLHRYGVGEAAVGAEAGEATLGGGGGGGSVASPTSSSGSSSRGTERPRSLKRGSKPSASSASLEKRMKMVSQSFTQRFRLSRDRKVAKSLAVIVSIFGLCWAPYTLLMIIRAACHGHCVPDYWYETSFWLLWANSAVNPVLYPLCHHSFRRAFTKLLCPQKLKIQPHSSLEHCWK
testSummary: Antagonist activity at human histamine H3 receptor by FLIPR assay
observedProperty: pIC50
Scale explanation: pIC50 corresponds to minus log10 of a concentration expressed in moles per litre.

# CC1CCCN1C1CCN(c2ccc(NC(=O)c3cc(Cl)cc(Cl)c3)cc2)C1 (stereo unspecified) with Histamine H3 receptor (Homo sapiens): pIC50 is 9.32

###

Here, each record is paired with measured pEC50 data.
testSummary: Antagonist activity at rhesus monkey histamine H3 receptor by GTPgammaS binding assay
Design: species or system Macaca mulatta
Just the number, please; pEC50 means minus log10 of the concentration in mol/L.

>>> endpointresult("Cc1cc(N2CCC(N3CCCC3C)C2)ccc1NC(=O)c1cc(F)ccc1C (configuration not stated)")
8.96

The molecule Cc1cc(N2CCC(N3CCCC3C)C2)ccc1NC(=O)c1ccccc1F (configuration not stated) showed pEC50 equal to 8.54
